Test: Oral bioavailability in rhesus monkey
Assay type: ADME, organism-based, Macaca mulatta
Details: in vivo
quantity.kind: bioavailability (%)
Kindly provide the numeric value in % only, without the unit symbol.

The recorded bioavailability for entry N#CC1(c2ccccn2)CCN(Cc2cc(C(=O)O)c(=O)n3ccccc23)CC1 equals 55

* * *

Assay: Passive permeability of the compound at 5 uM
Format: ADME
Settings: not told
quantity.kind: Papp at 5 µM (×10⁻⁶ cm/s)
Kindly provide the numeric value in ×10⁻⁶ cm/s only, without the unit symbol.

The recorded Papp at 5 µM for entry Cc1ccnc(C2(C#N)CCN(Cc3cc(C(=O)O)c(=O)n4ccccc34)CC2)c1 equals 27

The recorded Papp at 5 µM for entry N#CC1(c2ccccc2)CCN(Cc2cc(C(=O)O)c(=O)n3ccccc23)CC1 equals 27

The recorded Papp at 5 µM for entry N#CC1(c2ccccn2)CCN(Cc2cc(C(=O)O)c(=O)n3ccccc23)CC1 [MSD-M1PAM] equals 18

The recorded Papp at 5 µM for entry Cc1ccccc1C1(C#N)CCN(Cc2cc(C(=O)O)c(=O)n3ccccc23)CC1 equals 24

The recorded Papp at 5 µM for entry N#CC1(c2cccnc2)CCN(Cc2cc(C(=O)O)c(=O)n3ccccc23)CC1 equals 39

Cited source: ChEMBL document CHEMBL1799933
